Values from the supplement of paper PMC10567573

Reported protein stability index values follow for various variants
B1: APBB1IP (parent)
chain: SQVSMWDQRWQDHQPLLPITDVP

variants of: B1; test: protein stability index of a GFP-peptide fusion (GPS, HEK-293T) (PSI 1-6); higher = more stable; details: c terminus: native;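 note: lentivirally expressed fusions sorted by FACS into six bins by GFP to DsRed ratio, PSI derived from sequencing read proportions per bin multiplied by bin number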
MEASURE: protein stability index

| SEQUENCE_CHAIN | MEASURE | MEASURED_RESULT |
| --- | --- | --- |
| SQVSMWDQRWQDHQPLAPITDVP [L17A] | protein stability index | 3.32 |
| SQVSIWDQRWQDHQPLLPITDVP [M5I] | protein stability index | 1.98 |
| SQNSMWDQRWQDHQPLLPITDVP [V3N] | protein stability index | 2.49 |
| SQVSYWDQRWQDHQPLLPITDVP [M5Y] | protein stability index | 2.17 |
| SQVSMWDQRWQDHQPLLPITCVP [D21C] | protein stability index | 5.18 |
| SQVSMWDQRWQDHQPELPITDVP [L16E] | protein stability index | 3.38 |
| SQVSMWDQCWQDHQPLLPITDVP [R9C] | protein stability index | 2.26 |
| SQVVMWDQRWQDHQPLLPITDVP [S4V] | protein stability index | 2.49 |
| SQVSMWDQRWQMHQPLLPITDVP [D12M] | protein stability index | 1.85 |
